Value source: PubChem BioAssay (NCI)

# Tested on: IGROV1 ovarian
# ASSAY OVERVIEW: NCI-60 one-dose screen, 48 h (100 = growth as untreated, 0 = no growth, -100 = all killed)
# RUN CONDITIONS: 10 µM unless noted
The panel holds about 83,000 compounds, 20% with a hit somewhere; the sample as a whole holds those more often.
Please respond with Condition met when measured growth is strictly beneath 80%, and with Condition not met in all other cases.

SMI	LABEL
NC(N)=NC(N)=Nc1ccccc1-c1ccccc1	Condition not met

Moving on to the next compound.
# check: growth < 80% for O=C(/C=C/CN1CCOCC1)Nc1cc2c(Nc3ccc(F)c(Cl)c3F)ncnc2cc1OCCOC(F)F
Condition met
